test: Solubility testing of (Z)-endoxifen in single solvents; format: physicochemical; conditions: 2-propanol, 25 °C, organic solvent or mixture, thermodynamic from solid, 2-propanol, room temperature; read-out: Solubility
metric: solubility at 15 min (µg/mL)
Numbers only, in µg/mL.

Any idea what its solubility at 15 min is? The molecule is CC/C(=C(\c1ccc(O)cc1)c1ccc(OCCNC)cc1)c1ccccc1 [(Z)-endoxifen]
10000

====

assay: Stability of (Z)-Endoxifen in acetone (HPLC peak table over time); assay type: physicochemical; details: acetone, 40° C., 28 hr
metric: HPLC peak RT 17.69, RRT 1.09 (%)
One number for each entry, in %.

Any idea what its HPLC peak RT 17.69, RRT 1.09 is? The molecule is CC/C(=C(\c1ccc(O)cc1)c1ccc(OCCNC)cc1)c1ccccc1 [(Z)-endoxifen]
0.1

====

Assay: Solubility testing of (Z)-endoxifen in single solvents
Format: physicochemical
Conditions: butyl acetate, 25 °C, organic solvent or mixture, thermodynamic from solid, butyl acetate, room temperature; read-out: Solubility
Experimental: To test the solubility of (Z)-endoxifen in varying conditions, 10 mg of (Z)-endoxifen was added to a stoppered tube, and 0.01 ml of the selected solvent was added (1000 mg/ml solution). The tube was shaken vigorously for 1 minute and then incubated at a constant temperature of 25.0° C. for 15 minutes. If the solid was not completed dissolved, the tube was shaken again and placed at the constant temperature of 25.0° C. for another 15 minutes. […]
metric: solubility at 15 min (mg/mL)
Give bare numbers, in mg/mL.

Any idea what its solubility at 15 min is? The compound is CC/C(=C(\c1ccc(O)cc1)c1ccc(OCCNC)cc1)c1ccccc1 [(Z)-endoxifen]
10

====

assay: Solvent mixture solubility tests of (Z)-endoxifen; type: physicochemical; conditions: ethyl acetate/THF (95/5 v/v), organic solvent or mixture, thermodynamic from solid, ethyl acetate/THF (95/5 v/v), high temperature; precipitated during cooling; read-out: Solubility
metric: solubility (mg/mL)
Numbers only, in mg/mL.

Any idea what its solubility is? The compound is CC/C(=C(\c1ccc(O)cc1)c1ccc(OCCNC)cc1)c1ccccc1 [(Z)-endoxifen]
40

====

assay: Stability of (Z)-Endoxifen in acetone (HPLC peak table over time); type: physicochemical; conditions: acetone at reflux (56° C.), 43 hr
metric: HPLC peak RT 20.51, RRT 1.35 (%)
Numbers only, in %.

Any idea what its HPLC peak RT 20.51, RRT 1.35 is? The compound is CC/C(=C(\c1ccc(O)cc1)c1ccc(OCCNC)cc1)c1ccccc1 [(Z)-endoxifen]
0.05

====

assay: Stability of (Z)-Endoxifen in acetone (HPLC peak table over time); type: physicochemical; conditions: acetone at reflux (56° C.), 43 hr
metric: HPLC peak RT 13.84, RRT 0.91 (%)
One number for each entry, in %.

Any idea what its HPLC peak RT 13.84, RRT 0.91 is? The compound is CC/C(=C(\c1ccc(O)cc1)c1ccc(OCCNC)cc1)c1ccccc1 [(Z)-endoxifen]
0.04

====

assay: Stability of (Z)-Endoxifen in acetone (HPLC peak table over time); assay type: physicochemical; conditions: acetone, 40° C., T0
metric: HPLC peak RT 14.68, RRT 0.90 (%)
Numbers only, in %.

Any idea what its HPLC peak RT 14.68, RRT 0.90 is? The compound is CC/C(=C(\c1ccc(O)cc1)c1ccc(OCCNC)cc1)c1ccccc1 [(Z)-endoxifen]
0.04

====

experiment: Solubility testing of (Z)-endoxifen in single solvents; assay type: physicochemical; conditions: dimethylformamide (stored as limethylformamide), 25 °C, organic solvent or mixture, thermodynamic from solid, solvent limethylformamide; room temperature; read-out: Solubility at RT
metric: solubility at 15 min

Any idea what its solubility at 15 min is? The compound is CC/C(=C(\c1ccc(O)cc1)c1ccc(OCCNC)cc1)c1ccccc1 [(Z)-endoxifen]
200 to 250 mg/mL

====

assay: Solvent mixture solubility tests of (Z)-endoxifen; format: physicochemical; conditions: water/acetonitrile 50/50 v/v, aqueous with cosolvent or surfactant or cyclodextrin, thermodynamic from solid, water/acetonitrile 50/50 v/v; 100 mg/mL; high temperature; read-out: Solubility HT (100 mg/mL): Sol. HT
metric: solubility

Any idea what its solubility is? The molecule is CC/C(=C(\c1ccc(O)cc1)c1ccc(OCCNC)cc1)c1ccccc1 [(Z)-endoxifen]
< 100 mg/mL

====

assay: Stability of (Z)-Endoxifen in acetone (HPLC peak table over time); assay type: physicochemical; conditions: acetone at reflux (56° C.), 19 hr
metric: HPLC peak RT 22.88, RRT 1.51 (%)
One number for each entry, in %.

Any idea what its HPLC peak RT 22.88, RRT 1.51 is? The molecule is CC/C(=C(\c1ccc(O)cc1)c1ccc(OCCNC)cc1)c1ccccc1 [(Z)-endoxifen]
0.09

====

assay: Stability of (Z)-Endoxifen in acetone (HPLC peak table over time); assay type: physicochemical; conditions: acetone at reflux (56° C.), 43 hr
metric: E-form, RT 14.58, RRT 0.96 (%)
Give bare numbers, in %.

Any idea what its E-form, RT 14.58, RRT 0.96 is? The compound is CC/C(=C(\c1ccc(O)cc1)c1ccc(OCCNC)cc1)c1ccccc1 [(Z)-endoxifen]
5.33

====

assay: Stability of (Z)-Endoxifen in acetone (HPLC peak table over time); assay type: physicochemical; conditions: acetone, 40° C., 28 hr
metric: HPLC peak RT 20.80, RRT 1.28 (%)
One number for each entry, in %.

Any idea what its HPLC peak RT 20.80, RRT 1.28 is? The compound is CC/C(=C(\c1ccc(O)cc1)c1ccc(OCCNC)cc1)c1ccccc1 [(Z)-endoxifen]
0.19

====

test: Stability of (Z)-Endoxifen in acetone (HPLC peak table over time); format: physicochemical; conditions: acetone, 40° C., 4 hr
metric: HPLC peak RT 22.68, RRT 1.39 (%)
Give bare numbers, in %.

Any idea what its HPLC peak RT 22.68, RRT 1.39 is? The compound is CC/C(=C(\c1ccc(O)cc1)c1ccc(OCCNC)cc1)c1ccccc1 [(Z)-endoxifen]
0.1

====

assay: Stability of (Z)-Endoxifen in acetone (HPLC peak table over time); type: physicochemical; conditions: acetone, 40° C., 20 hr
metric: HPLC peak RT 21.83, RRT 1.34 (%)
One number for each entry, in %.

Any idea what its HPLC peak RT 21.83, RRT 1.34 is? The compound is CC/C(=C(\c1ccc(O)cc1)c1ccc(OCCNC)cc1)c1ccccc1 [(Z)-endoxifen]
0.08

====

assay: Stability of (Z)-Endoxifen in acetone (HPLC peak table over time); type: physicochemical; settings: acetone at reflux (56° C.), T0
metric: HPLC peak RT 27.88, RRT 1.84 (%)
Answers are plain numbers, in %.

Any idea what its HPLC peak RT 27.88, RRT 1.84 is? The compound is CC/C(=C(\c1ccc(O)cc1)c1ccc(OCCNC)cc1)c1ccccc1 [(Z)-endoxifen]
0.04

====

assay: Solubility testing of (Z)-endoxifen in single solvents; format: physicochemical; conditions: heptane, organic solvent or mixture, thermodynamic from solid, solvent heptane; 10 mg/mL; high temperature; read-out: Solubility HT (10 mg/mL): Sol. HT
metric: solubility

Any idea what its solubility is? The compound is CC/C(=C(\c1ccc(O)cc1)c1ccc(OCCNC)cc1)c1ccccc1 [(Z)-endoxifen]
< 10000 µg/mL

====

assay: Stability of (Z)-Endoxifen in acetone (HPLC peak table over time); format: physicochemical; conditions: acetone at reflux (56° C.), 3 hr
metric: E-form, RT 14.58, RRT 0.96
Please report the result as a number followed by the unit.

Any idea what its E-form, RT 14.58, RRT 0.96 is? The compound is CC/C(=C(\c1ccc(O)cc1)c1ccc(OCCNC)cc1)c1ccccc1 [(Z)-endoxifen]
0.54%
